# System: Staphylococcus aureus
# Experimental protocol: Antibacterial activity against Staphylococcus aureus assessed as inhibition of bacterial growth measured after 48 hrs by resazurin staining based analysis
# Assay type: functional
Answer each item with its documented MIC.

C\C(=C/C=C/C=C/C=C/CC/C=C/[C@H](C)[C@H](O)[C@@H](C)[C@H](O)/C=C/C=C/C=C/C=C/C=C/C[C@H](O)[C@H](C)C(=O)C[C@H](O)C[C@H](O)C[C@H](O)/C=C/C[C@@H](O)C[C@H](O)C[C@@H](O)C[C@H](O)/C=C/C[C@H](O)/C=C/C[C@H](O)CCCNC(=N)N)C(=O)O 0.39 µg/mL
C\C(=C/C=C/C=C/C=C/C=C/CC/C=C/[C@H](C)[C@H](O)[C@@H](C)[C@H](O)/C=C/C=C/C=C/C=C/C=C/C[C@H](O)[C@H](C)C(=O)C[C@H](O)C[C@H](O)C[C@H](O)/C=C/C[C@@H](O)C[C@H](O)C[C@@H](O)C[C@H](O)/C=C/C[C@H](O)/C=C/C[C@H](O)C[C@H](O)CCCN)C(=O)O 1.5 µg/mL
C\C(=C/C=C/C=C/C=C/CC/C=C/[C@H](C)[C@H](O)[C@@H](C)[C@H](O)/C=C/C=C/C=C/C=C/C=C/C[C@H](O)[C@H](C)C(=O)C[C@H](O)C[C@H](O)C[C@H](O)/C=C/C[C@@H](O)C[C@H](O)C[C@@H](O)C[C@H](O)/C=C/C[C@H](O)/C=C/C[C@H](O)C[C@H](O)CCCN)C(=O)O 3.1 µg/mL

Enquiry: For the compound CN[C@H](CC(C)C)C(=O)N[C@H]1C(=O)N[C@@H](CC(N)=O)C(=O)N[C@H]2C(=O)N[C@H]3C(=O)N[C@H](C(=O)N[C@H](C(=O)O)c4cc(O)cc(O)c4-c4cc3ccc4O)[C@H](O)c3ccc(c(Cl)c3)Oc3cc2cc(c3O[C@@H]2O[C@H](CO)[C@@H](O)[C@H](O)[C@H]2O[C@H]2C[C@](C)(N)[C@H](O)[C@H](C)O2)Oc2ccc(cc2Cl)[C@H]1O , give its reported MIC.
Return: 0.8 µg/mL

---

Please respond with reported IC50 at 48 h for every item in the list.
# Experimental protocol: Cytotoxicity against human NFF cells assessed as inhibition of cell growth measured after 48 hrs by resazurin staining based analysis
# Format: toxicity

Example entries begin here.
CSC[S@+]([O-])C[C@H](CO)NC(=O)/C=C/c1c(C)[nH]c(=O)[nH]c1=O 1.2 µM
C\C(=C/C=C/C=C/C=C/CC/C=C/[C@H](C)[C@H](O)[C@@H](C)[C@H](O)/C=C/C=C/C=C/C=C/C=C/C[C@H](O)[C@H](C)C(=O)C[C@H](O)C[C@H](O)C[C@H](O)/C=C/C[C@@H](O)C[C@H](O)C[C@@H](O)C[C@H](O)/C=C/C[C@H](O)/C=C/C[C@H](O)CCCNC(=N)N)C(=O)O > 80 µM

# map each molecule to its IC50 at 48 h
1. C\C(=C/C=C/C=C/C=C/CC/C=C/[C@H](C)[C@H](O)[C@@H](C)[C@H](O)/C=C/C=C/C=C/C=C/C=C/C[C@H](O)[C@H](C)C(=O)C[C@H](O)C[C@H](O)C[C@H](O)/C=C/C[C@@H](O)C[C@H](O)C[C@@H](O)C[C@H](O)/C=C/C[C@H](O)/C=C/C[C@H](O)C[C@H](O)CCCN)C(=O)O
2. C\C(=C/C=C/C=C/C=C/C=C/CC/C=C/[C@H](C)[C@H](O)[C@@H](C)[C@H](O)/C=C/C=C/C=C/C=C/C=C/C[C@H](O)[C@H](C)C(=O)C[C@H](O)C[C@H](O)C[C@H](O)/C=C/C[C@@H](O)C[C@H](O)C[C@@H](O)C[C@H](O)/C=C/C[C@H](O)/C=C/C[C@H](O)C[C@H](O)CCCN)C(=O)O

Return:
1: > 80 µM; 2: > 80 µM
